- test-target: HLA-B*0801 (Homo sapiens, UniProt P01889, A93T/A95T/D138N/E176V/E187T/K202T/Q94N/R180D/S35A/V36M/Y33D/Y91F)
- Type: binding
ELISA (Absorption-Pass/Fail Control) below 0.08 gives -1; ELISA (Absorption-Pass/Fail Control) at or above it gives 1.

Solved cases (4 shown):
VAGWLLGNP [SEQ ID NO: 37]
-1
LILRDCSVA [SEQ ID NO: 23]
-1
VSLVKSDQI [SEQ ID NO: 31]
1
KPLILRDCS [SEQ ID NO: 35]
1

Can VTHAQDILE [SEQ ID NO: 33] be said to have ELISA (Absorption-Pass/Fail Control) at or above 0.08?
1

Can ILEKKHNGK [SEQ ID NO: 28] be said to have ELISA (Absorption-Pass/Fail Control) at or above 0.08?
1

Can GNPMCDEFI [SEQ ID NO: 39] be said to have ELISA (Absorption-Pass/Fail Control) at or above 0.08?
-1

* * *

- test-target: HLA-A*0301 (Homo sapiens)
- Type: binding
readout-kind: ELISA (Absorption-Pass/Fail Control)
Returns: the value as a bare number; no unit string appended.

ILRGSVAHK (T cell epitope) [SEQ ID NO: 5, reference compound]
1.19
NVTVTHAQD [SEQ ID NO: 27]
−0.04
KLCDLDGVK [SEQ ID NO: 22]
1.16
ILEKKHNGK [SEQ ID NO: 28]
−0.01

Consider the additional sequence presented here.
Report value: ELISA (Absorption-Pass/Fail Control), system: HLA-A*0301 (Homo sapiens), sequence: KSDQICIGY [SEQ ID NO: 9]
0.05

* * *

- test-target: HLA-B*0702 (Homo sapiens, UniProt P01889)
- Assay type: binding
readout-kind: ELISA (Absorption-Pass/Fail Control)
Returns: the value as a bare number; no unit string appended.

Recorded ELISA (Absorption-Pass/Fail Control), per entry:
ILRDCSVAG [SEQ ID NO: 30]
0.03
YIVEKANPV [SEQ ID NO: 26]
0.11
TIMEKNVTV [SEQ ID NO: 18]
0.00

Report value: ELISA (Absorption-Pass/Fail Control), system: HLA-B*0702 (Homo sapiens, UniProt P01889), sequence: TPRVTGGGAM (T cell epitope) [SEQ ID NO: 6, reference compound]
0.88

Report value: ELISA (Absorption-Pass/Fail Control), system: HLA-B*0702 (Homo sapiens, UniProt P01889), sequence: LVKSDQICI [SEQ ID NO: 29]
−0.06

* * *

- test-target: HLA-B*3501 (Homo sapiens, UniProt P01889, A329T/A93T/A95T/C349S/D201E/D98Y/E176V/E187L/E204Q/E69T/I218V/K202T/L119I/Q94N/R155S/R180L/S121R/S35A/S48A/T118I/V127L/V306I/V36M/Y140S/Y91F)
- Format: binding
Let's look at some sequences and their measured ELISA (Absorption-Pass/Fail Control).
Returns: the value as a bare number; no unit string appended.

Return ELISA (Absorption-Pass/Fail Control) (reported value) for this sequence: LFAIVSLVK [SEQ ID NO: 40]
0.10

Return ELISA (Absorption-Pass/Fail Control) (reported value) for this sequence: KKHNGKLCD [SEQ ID NO: 41]
−0.05

Return ELISA (Absorption-Pass/Fail Control) (reported value) for this sequence: HANNSTEQV [SEQ ID NO: 17]
0.43

Return ELISA (Absorption-Pass/Fail Control) (reported value) for this sequence: LGNPMCDEF [SEQ ID NO: 43]
0.35

Return ELISA (Absorption-Pass/Fail Control) (reported value) for this sequence: AGWLLGNPM [SEQ ID NO: 42]
−0.06
